# procedure-text: Intrinsic clearance in human liver microsomes at 1 uM in presence of NADPH
# Format: ADME, Microsome
# stated-conditions: read-out: CLH
Rule: microsomal CLint at 1 µM below 20 µL/min/mg gives true (1), anything at or above gives false (0).

Previously resolved entries follow.
> print(dat)
                                   molecule  qualitative.label
1  O=C(c1cccnc1)N1N=C2CCOC[C@@H]2[C@@]1(O)C(F)(F)F (racemic)           true (1)
2  Cc1cccc(C(=O)N2N=C3CCCC[C@@H]3[C@@]2(O)C(F)(F)F)c1O (racemic)          false (0)
3  Cc1ccc(C(=O)N2N=C3CCCC[C@@H]3[C@@]2(O)C(F)(F)F)cn1 (racemic)           true (1)

Consider the molecule O=C(c1ccncc1)N1N=C2CCCCC[C@@H]2[C@@]1(O)C(F)(F)F (racemic) . Is its microsomal CLint at 1 µM strictly less than 20 µL/min/mg?
false (0)

Could you do the same for Nc1nc(C(=O)N2N=C3CCCC[C@@H]3[C@@]2(O)C(F)(F)F)cs1 (racemic) , please?
true (1)

Could you do the same for O=C(c1ccncc1)N1N=C2CCCC[C@@H]2[C@@]1(O)C(F)(F)F (racemic) , please?
false (0)

Could you do the same for Cn1cnc(S(=O)(=O)N2N=C3CCCC[C@@H]3[C@@]2(O)C(F)(F)F)c1 (racemic) , please?
false (0)

Could you do the same for Nc1nc(C(=O)N2N=C3CCCC[C@@H]3[C@@]2(O)C(F)(F)F)co1 (racemic) , please?
true (1)

Could you do the same for Cn1cc(Br)c(C(=O)N2N=C3CCCC[C@@H]3[C@@]2(O)C(F)(F)F)n1 (racemic) , please?
true (1)

Could you do the same for Cn1cc(N)c(C(=O)N2N=C3CCCC[C@@H]3[C@@]2(O)C(F)(F)F)n1 (racemic) , please?
true (1)

---

# Test system: HEK293
# procedure-text: Inhibition of full-length huntingtin Q138 mutant (unknown origin) expressed in human T-RexTM-293 cells co-expressing CRE-Luc assessed as decrease of CREB-mediated transcription after 72 hrs by luciferase reporter gene based luminescence assay relative to control
# Type: cell-based
Reported Emax values follow for various molecules
Express your answer in %, writing the number without its unit.

If you can, please state the reported Emax value of Cn1cc(Br)c(C(=O)N2N=C3CCCC[C@@H]3[C@@]2(O)C(F)(F)F)n1 (racemic) .
29

Could you do the same for O=C(c1ccncc1)N1N=C2CCCCC[C@@H]2[C@@]1(O)C(F)(F)F (racemic) , please?
34

Could you do the same for Cn1cnc(S(=O)(=O)N2N=C3CCCC[C@@H]3[C@@]2(O)C(F)(F)F)c1 (racemic) , please?
41

Could you do the same for Cc1cccc(C(=O)N2N=C3CCCC[C@@H]3[C@@]2(O)C(F)(F)F)c1O (racemic) , please?
32

---

# System: MDCK
# procedure-text: Efflux ratio of permeability […] in MDCK cells expressing MDR1 after 120 mins
# Type: ADME, cell-based, Canis lupus familiaris
# stated-conditions: dog, 2 h
endpoint-label: Ratio
Give only the figure.

Here's what some known entries look like.
> print(dat)
                                   compound  observed
1  Cn1cnc(S(=O)(=O)N2N=C3CCCC[C@@H]3[C@@]2(O)C(F)(F)F)c1 (racemic)       0.9
2  O=C(c1cccnc1)N1N=C2CCOC[C@@H]2[C@@]1(O)C(F)(F)F (racemic)       1.1
3  Cc1ccc(C(=O)N2N=C3CCCC[C@@H]3[C@@]2(O)C(F)(F)F)cn1 (racemic)       1.5

Let us move to another entry and its Ratio.
If you can, please state the reported Ratio value of O=C(c1ccncc1)N1N=C2CCCC[C@@H]2[C@@]1(O)C(F)(F)F (racemic) .
1.1
